# test.method.notes: self-splicing fitness, log relative to wild type (ln ratio); higher = more splicing; Tetrahymena group I intron in knt gene, E. coli kanamycin selection, DiMSum; sequences stand for … in CUCUCU…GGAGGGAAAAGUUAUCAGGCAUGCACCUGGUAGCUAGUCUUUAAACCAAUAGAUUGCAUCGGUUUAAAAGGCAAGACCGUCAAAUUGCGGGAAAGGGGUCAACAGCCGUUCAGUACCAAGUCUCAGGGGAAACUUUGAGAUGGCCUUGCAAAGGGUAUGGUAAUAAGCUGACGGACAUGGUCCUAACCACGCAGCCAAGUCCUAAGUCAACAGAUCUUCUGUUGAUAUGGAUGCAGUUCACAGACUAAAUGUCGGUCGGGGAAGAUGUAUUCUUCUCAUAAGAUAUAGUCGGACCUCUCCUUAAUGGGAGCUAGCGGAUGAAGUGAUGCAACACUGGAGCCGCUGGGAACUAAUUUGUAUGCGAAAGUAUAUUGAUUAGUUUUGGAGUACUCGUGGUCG;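 note: selection with 25 µg/mL kanamycin versus none on LB agar overnight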
# assay.setup: 30 °C
value.type: self-splicing fitness (ln)
Please give the numeric answer without any surrounding text.

(Q) For `AAGCAGCAAUAUUACGGUUG` , what is its reported self-splicing fitness (ln)?
(A) -3.08

(Q) Item under review: `UGUCAGCAAUAUUACGAGCG` . Reported self-splicing fitness (ln)?
(A) 0.308

(Q) Any idea what self-splicing fitness (ln) was measured for `UAAGAGCAAUAUUACGAGCA` ?
(A) -3.18

(Q) Record request: self-splicing fitness (ln) value, item `ACUGAGCAAUAUUACGUUAG`
(A) -3.64

(Q) Bench note: what self-splicing fitness (ln) did `AGGGAGCAAUAUUACGCCAG` show?
(A) -1.99

(Q) Sample `UGCUAGCAAUAUUACGUGAU` — what was its self-splicing fitness (ln)?
(A) -1.88

(Q) Consider the sequence shown here: `GUAUAGCAAUAUUACGAAUC` What is its recorded self-splicing fitness (ln)?
(A) -2.37

(Q) Recorded self-splicing fitness (ln) for `GGAAAGCAAUAUUACGUAUC` , please?
(A) -2.09

(Q) self-splicing fitness (ln) for `GACCAGCAAUAUUACGCAGC` ?
(A) -0.913

(Q) Fill blank: measured self-splicing fitness (ln) of the sequence `ACUGAGCAAUAUUACGCCUU` is ____.
(A) -1.55

(Q) Fill in: self-splicing fitness (ln) of `GCCGAGCAAUAUUACGUUGA` is ___
(A) -3

(Q) May I ask what self-splicing fitness (ln) has been recorded for `AAAGAGCAAUAUUACGGAUA` ?
(A) -2.75

* * *

# test.method.notes: self-splicing fitness, log relative to wild type (ln ratio); higher = more splicing; Tetrahymena group I intron in knt gene, E. coli kanamycin selection, DiMSum; sequences stand for … in CUCUCU…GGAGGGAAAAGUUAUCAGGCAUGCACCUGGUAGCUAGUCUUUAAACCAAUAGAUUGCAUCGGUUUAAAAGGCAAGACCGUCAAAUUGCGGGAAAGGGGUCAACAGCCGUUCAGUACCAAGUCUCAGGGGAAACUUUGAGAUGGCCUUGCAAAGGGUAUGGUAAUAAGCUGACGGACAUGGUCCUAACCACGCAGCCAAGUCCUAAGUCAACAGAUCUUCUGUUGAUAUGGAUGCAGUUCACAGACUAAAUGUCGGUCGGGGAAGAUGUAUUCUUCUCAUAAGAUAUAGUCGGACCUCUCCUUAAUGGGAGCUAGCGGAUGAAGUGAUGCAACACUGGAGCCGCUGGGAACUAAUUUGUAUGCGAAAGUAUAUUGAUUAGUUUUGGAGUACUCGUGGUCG
# assay.setup: 37 °C
value.type: self-splicing fitness (ln)
Lab note: record the figure alone, no unit after it.

(Q) # get_value(readout='self-splicing fitness (ln)', item= `CAUAAGCAAUAUUACGGUUA` )
(A) -2.05

(Q) Reported self-splicing fitness (ln), sequence `CGACAGCAAUAUUACGAUGA` : ____
(A) -0.41

(Q) Find the recorded self-splicing fitness (ln) belonging to `UCUUAGCAAUAUUACGCGCC` and report it.
(A) -2.42

(Q) Give the measured self-splicing fitness (ln) of `CACGAGCAAUAUUACGACAC` .
(A) -2.18

(Q) For the sequence shown here, `GAUGAGCAAUAUUACGCGUA` , give the reported self-splicing fitness (ln).
(A) -1.85

(Q) What measured self-splicing fitness (ln) goes with `CCAGAGCAAUAUUACGUAGU` ?
(A) -2.87

(Q) So what's the measured self-splicing fitness (ln) for this one? `CGGCAGCAAUAUUACGACGA`
(A) -1.41

(Q) I'd like to know its self-splicing fitness (ln). The sequence in question is `CAACAGCAAUAUUACGCGCU`
(A) -1.97

(Q) Fill in: self-splicing fitness (ln) of `AAUAAGCAAUAUUACGCGGC` is ___
(A) -2.03

(Q) Entry under review: `ACAAAGCAAUAUUACGCAAA` . Reported self-splicing fitness (ln)?
(A) -1.6

(Q) // self-splicing fitness (ln) lookup, key: `UGGAAGCAAUAUUACGGGAG`
(A) -2.09

(Q) Consider the sequence `GGCAAGCAAUAUUACGCCGA` and give its measured self-splicing fitness (ln).
(A) -0.337

(Q) Given the entry `AUGAAGCAAUAUUACGGCUC` , report its measured self-splicing fitness (ln).
(A) 0.254

(Q) State the recorded self-splicing fitness (ln) for this entry: `GAAAAGCAAUAUUACGAAAG`
(A) -1.9

(Q) What does the record list as self-splicing fitness (ln) for `UUAAAGCAAUAUUACGUUGC` ?
(A) -2.66

(Q) Look at this sequence and give its reported self-splicing fitness (ln). `AUUUAGCAAUAUUACGUAUA`
(A) -1.48

(Q) # input sequence: `AUUGAGCAAUAUUACGACCU` ; wanted: its self-splicing fitness (ln)
(A) -0.0611

(Q) Reported self-splicing fitness (ln) for `GAAAAGCAAUAUUACGGGCC` : what is it?
(A) -1.37

(Q) Reported self-splicing fitness (ln), sequence `GGCUAGCAAUAUUACGACUA` : ____
(A) -0.454

(Q) Query (sequence): `CCUUAGCAAUAUUACGUAGA` ; field requested: self-splicing fitness (ln)
(A) -0.769

(Q) Given `GUGAAGCAAUAUUACGUCUC` , state its recorded self-splicing fitness (ln).
(A) -0.553

(Q) Field request: self-splicing fitness (ln) | item: `AAUGAGCAAUAUUACGGUAU`
(A) -1.81

(Q) Which self-splicing fitness (ln) value is on record for `AGGUAGCAAUAUUACGUGUU` ?
(A) -1.6

(Q) Consider the sequence shown here: `ACUAAGCAAUAUUACGAAUU` What is its recorded self-splicing fitness (ln)?
(A) -0.972

(Q) Entry `UCCCAGCAAUAUUACGCUGC` : reported self-splicing fitness (ln) = ?
(A) -2.75

(Q) What does the record list as self-splicing fitness (ln) for `ACGAAGCAAUAUUACGGUAU` ?
(A) -1.27

(Q) Looking for the measured self-splicing fitness (ln) of `UUCAAGCAAUAUUACGUUGG` , can you help?
(A) -1.66

(Q) What does the record list as self-splicing fitness (ln) for `GCGUAGCAAUAUUACGCCCG` ?
(A) 0.544

* * *

# test.method.notes: self-splicing fitness, log relative to wild type (ln ratio); higher = more splicing; Tetrahymena group I intron in knt gene, E. coli kanamycin selection, DiMSum; sequences stand for … in CUCUCU…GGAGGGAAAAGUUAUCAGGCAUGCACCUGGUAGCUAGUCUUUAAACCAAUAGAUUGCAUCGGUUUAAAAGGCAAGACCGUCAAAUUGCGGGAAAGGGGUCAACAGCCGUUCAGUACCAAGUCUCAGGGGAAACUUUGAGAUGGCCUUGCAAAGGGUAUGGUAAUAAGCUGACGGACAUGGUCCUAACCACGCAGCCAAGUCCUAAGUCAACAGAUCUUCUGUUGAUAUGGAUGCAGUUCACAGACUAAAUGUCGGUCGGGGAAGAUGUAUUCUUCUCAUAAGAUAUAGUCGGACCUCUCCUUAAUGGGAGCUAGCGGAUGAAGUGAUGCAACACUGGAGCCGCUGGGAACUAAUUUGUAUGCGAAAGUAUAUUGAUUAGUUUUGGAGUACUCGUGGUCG
# assay.setup: 30 °C
value.type: self-splicing fitness (ln)
Reply: number alone, nothing else.

(Q) Please look up its self-splicing fitness (ln): `UGAGAGCAAUAUUACGAUCU`
(A) -2.49

(Q) Query: self-splicing fitness (ln); subject: `GACUAGCAAUAUUACGACAU`
(A) -0.511

(Q) // lookup self-splicing fitness (ln) for `GUCAAGCAAUAUUACGAGUA`
(A) -3.43

(Q) # query: self-splicing fitness (ln) of entry `CCAUAGCAAUAUUACGCCCG`
(A) -0.369

(Q) State the recorded self-splicing fitness (ln) for this entry: `AUAUAGCAAUAUUACGUGCA`
(A) -1.57

(Q) Suppose we examine the sequence `GCGGAGCAAUAUUACGCUGA` ; what self-splicing fitness (ln) value has been reported?
(A) -3.01

(Q) Give its self-splicing fitness (ln) value. Item: `CUUAAGCAAUAUUACGAAAA`
(A) -1.9

(Q) I'd like to know its self-splicing fitness (ln). The sequence in question is `UCGAAGCAAUAUUACGGUUC`
(A) -4.34

(Q) Reported self-splicing fitness (ln) for `CAAGAGCAAUAUUACGUCUC` : what is it?
(A) -3.6

(Q) What value of measured self-splicing fitness (ln) is listed for `AGGCAGCAAUAUUACGUAUG` ?
(A) -3.27

(Q) Reported self-splicing fitness (ln) for `AUCUAGCAAUAUUACGGUCA` : what is it?
(A) -1.31

(Q) For the sequence shown here, `GUGGAGCAAUAUUACGUCGG` , give the reported self-splicing fitness (ln).
(A) -3.08

(Q) Any idea what self-splicing fitness (ln) was measured for `AGACAGCAAUAUUACGCACC` ?
(A) -0.553

(Q) Tell me the measured self-splicing fitness (ln) of `ACAUAGCAAUAUUACGCCAC` , please.
(A) -3.57

(Q) Please give the measured self-splicing fitness (ln) for this sequence: `UGCGAGCAAUAUUACGGUAG`
(A) -3.36

(Q) If you can, please state the reported self-splicing fitness (ln) value of `UUCGAGCAAUAUUACGUUCA` .
(A) -1.99

(Q) Tell me the measured self-splicing fitness (ln) of `UAGCAGCAAUAUUACGCUUA` , please.
(A) -0.452

(Q) Return reported self-splicing fitness (ln); argument: `GUAAAGCAAUAUUACGCUGG`
(A) -0.164

(Q) Look at this sequence and give its reported self-splicing fitness (ln). `UGACAGCAAUAUUACGCAUG`
(A) -1.03

(Q) Could you tell me which self-splicing fitness (ln) is on file for `GUAGAGCAAUAUUACGCGCU` ?
(A) -2.69

(Q) Returns the measured self-splicing fitness (ln) for the input sequence. Input: `GAGCAGCAAUAUUACGGAAU`
(A) -3.37

(Q) For the sequence `UUCAAGCAAUAUUACGUGCC` , what self-splicing fitness (ln) is on record?
(A) -0.891

(Q) Which self-splicing fitness (ln) is listed for `AUAUAGCAAUAUUACGGUGA` ?
(A) -1.72
